Cited source for all entries: PubChem BioAssay (NCI)

test system: LOX IMVI melanoma; assay: NCI-60 one-dose screen, 48 h; conditions: 10 µM unless noted
This is part of a sample that, as a whole, favours compounds with a hit. Of some 83,000 tested, about 20% had one in any assay. Activity calls are given as the source filed them. The calls were made as follows: active = growth percent below 10; inactive = the rest.
// classify into TRUE for active, FALSE for inactive

Solved cases below.
- O=C(Nc1cccc(Cl)c1)Nc1cccc(Cn2c(=O)[nH]c3ccc(Oc4ncccn4)cc3c2=O)c1: FALSE
- CCOC(=O)n1ccn(C)c1=S: FALSE

# input Lab log entry: `O=S(=O)(Nc1cc(F)cc(Cl)c1)c1ccc(-c2cnc(C3CC3)o2)cc1` — outcome as called in the assay?
# output FALSE

# input Lab log entry: `Cc1sc2nc(NCCc3c[nH]c4ccc(Cl)cc34)[nH]c(=O)c2c1C` — outcome as called in the assay?
# output FALSE
